Test system: human dermal fibroblasts (HDFa)
Assay: MTT cell viability assay on dermal fibroblasts
Type: cell-based
Details: HDFa, 10 μM, 24 hours
Each entry below carries its reported % inhibition cell viability.

{"substance": "Ac-LRVQMVNMFL-NH2 [SEQ ID NO: 4 acetyl, LRVQMVNMFL]", "% inhibition cell viability": "37.1%"}
{"substance": "Ac-HYWRELQYR-NH2 [SEQ ID NO: 1 acetyl, HYWRELQYR]", "% inhibition cell viability": "33%"}
{"substance": "Ac-WEQEFLRR-NH2 [SEQ ID NO: 5 acetyl, WEQEFLRR]", "% inhibition cell viability": "12.1%"}
{"substance": "Ac-MQVWLRMWIDYRAT-NH2 [SEQ ID NO: 2 acetyl, MQVWLRMWIDYRAT]", "% inhibition cell viability": "8.5%"}

---

Each entry below carries its reported % inhibition cell viability.
Tested on: human dermal fibroblasts (HDFa)
Assay: MTT cell viability assay on dermal fibroblasts
Type: cell-based
Settings: HDFa, 1 μM, 24 hours

{"substance": "Ac-MQVWLRMWIDYRAT-NH2 [SEQ ID NO: 2 acetyl, MQVWLRMWIDYRAT]", "unit_abbreviation": "%", "% inhibition cell viability": 10.1}
{"substance": "Ac-LRVQMVNMFL-NH2 [SEQ ID NO: 4 acetyl, LRVQMVNMFL]", "unit_abbreviation": "%", "% inhibition cell viability": 14.5}
{"substance": "Ac-HYWRELQYR-NH2 [SEQ ID NO: 1 acetyl, HYWRELQYR]", "unit_abbreviation": "%", "% inhibition cell viability": 0.2}
{"substance": "Ac-WEQEFLRR-NH2 [SEQ ID NO: 5 acetyl, WEQEFLRR]", "unit_abbreviation": "%", "% inhibition cell viability": 9.3}

---

Test system: human dermal fibroblasts (HDFa)
Assay: MTT cell viability assay on dermal fibroblasts
Type: cell-based
Conditions: HDFa, 5 μM, 24 hours
Each entry below carries its reported % inhibition cell viability.

{"substance": "Ac-MQVWLRMWIDYRAT-NH2 [SEQ ID NO: 2 acetyl, MQVWLRMWIDYRAT]", "% inhibition cell viability / %": 12.3}
{"substance": "Ac-WEQEFLRR-NH2 [SEQ ID NO: 5 acetyl, WEQEFLRR]", "% inhibition cell viability / %": 10.0}
{"substance": "Ac-LRVQMVNMFL-NH2 [SEQ ID NO: 4 acetyl, LRVQMVNMFL]", "% inhibition cell viability / %": 28.4}
{"substance": "Ac-HYWRELQYR-NH2 [SEQ ID NO: 1 acetyl, HYWRELQYR]", "% inhibition cell viability / %": 9.7}

---

System: acetylcholine release, human neuroblastoma cell line differentiated to cholinergic neuronal phenotype
Assay: Inhibition of KCl-induced acetylcholine release in a neuroblastoma cell line (Amplex Red)
Type: cell-based
Conditions: TFA salt, 5 μM; 50 mM KCl
Residues, ends and D or L forms follow the SMILES beside them. *: point of attachment. Palmitoyl = CCCCCCCCCCCCCCCC(=O)*
reported_property: % Ach release inhibition (%)

{"compound": "CCCCCCCCCCCCCCCC(=O)N[C@@H](CC(C)C)C(=O)N[C@@H](CCCNC(=N)N)C(=O)N[C@H](C(=O)N[C@@H](CCC(N)=O)C(=O)N[C@@H](CCSC)C(=O)N[C@H](C(=O)N[C@@H](CC(N)=O)C(=O)N[C@@H](CCSC)C(=O)N[C@@H](Cc1ccccc1)C(=O)N[C@@H](CC(C)C)C(N)=O)C(C)C)C(C)C [SEQ ID NO: 4 palmitoyl, LRVQMVNMFL] (Palmitoyl-LRVQMVNMFL-NH2)", "reported_property": "% Ach release inhibition", "unit_abbreviation": "%", "result": 26.4}

---

System: human epidermal keratinocytes (HEKa)
Assay: MTT cell viability assay on epidermal keratinocytes
Type: cell-based
Conditions: HEKa, 1 μM, 24 hours
Each entry below carries its reported % inhibition cell viability.
reported_property: % inhibition cell viability (%)

{"substance": "Ac-WEQEFLRR-NH2 [SEQ ID NO: 5 acetyl, WEQEFLRR]", "reported_property": "% inhibition cell viability", "result": "−5.7"}
{"substance": "Ac-HYWRELQYR-NH2 [SEQ ID NO: 1 acetyl, HYWRELQYR]", "reported_property": "% inhibition cell viability", "result": "−1.4"}
{"substance": "Ac-MQVWLRMWIDYRAT-NH2 [SEQ ID NO: 2 acetyl, MQVWLRMWIDYRAT]", "reported_property": "% inhibition cell viability", "result": "−1.2"}
{"substance": "Ac-LRVQMVNMFL-NH2 [SEQ ID NO: 4 acetyl, LRVQMVNMFL]", "reported_property": "% inhibition cell viability", "result": 13.6}
